# Target: Acetylcholinesterase (Homo sapiens)
# Sequence (P22303 whole entry): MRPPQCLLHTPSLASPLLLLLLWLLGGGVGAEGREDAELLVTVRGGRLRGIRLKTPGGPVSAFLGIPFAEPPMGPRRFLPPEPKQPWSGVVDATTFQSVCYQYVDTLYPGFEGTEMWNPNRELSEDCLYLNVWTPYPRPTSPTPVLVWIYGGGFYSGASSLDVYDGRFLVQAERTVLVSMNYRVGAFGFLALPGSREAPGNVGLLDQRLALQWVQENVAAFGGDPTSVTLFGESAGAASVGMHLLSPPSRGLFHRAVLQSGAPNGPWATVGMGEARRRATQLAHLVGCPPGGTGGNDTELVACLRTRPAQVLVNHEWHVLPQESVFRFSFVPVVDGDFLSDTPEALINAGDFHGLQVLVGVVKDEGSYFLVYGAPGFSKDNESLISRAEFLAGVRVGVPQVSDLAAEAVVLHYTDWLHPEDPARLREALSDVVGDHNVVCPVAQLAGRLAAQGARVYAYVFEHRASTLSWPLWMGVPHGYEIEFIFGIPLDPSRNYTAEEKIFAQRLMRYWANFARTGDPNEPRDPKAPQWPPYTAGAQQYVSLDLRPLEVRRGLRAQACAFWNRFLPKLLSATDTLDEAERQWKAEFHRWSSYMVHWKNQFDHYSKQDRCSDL
# Experimental Protocol: Inhibition of AChE by Ellman's method
Measured Metric: IC50 (µM)
Return type: number; implicit unit µM.

Qu. IC50 for CC[C@H]1C[C@@H]2CN3CCc4c([nH]c5cc([C@H]6C[C@H]7C(C(=O)OC)[C@H](Cc8c6[nH]c6ccccc86)N(C)C[C@H]7CC)ccc45)[C@](C(=O)OC)(C2)[C@H]13 (some centres not stated) ?
Ans. 0.071

// next entry
Qu. IC50 for CC[C@H]1C[C@@H]2C[C@H]3c4[nH]c5cc([C@@H]6C[C@H]7C(C(=O)OC)[C@@H](Cc8c6[nH]c6ccccc86)N(C)C[C@H]7CC)ccc5c4CCN(C2)[C@@H]13 (some centres not stated) ?
Ans. 0.227

* * *

# Target: Acetylcholinesterase (Electrophorus electricus, UniProt O42275)
# Sequence (O42275 whole entry): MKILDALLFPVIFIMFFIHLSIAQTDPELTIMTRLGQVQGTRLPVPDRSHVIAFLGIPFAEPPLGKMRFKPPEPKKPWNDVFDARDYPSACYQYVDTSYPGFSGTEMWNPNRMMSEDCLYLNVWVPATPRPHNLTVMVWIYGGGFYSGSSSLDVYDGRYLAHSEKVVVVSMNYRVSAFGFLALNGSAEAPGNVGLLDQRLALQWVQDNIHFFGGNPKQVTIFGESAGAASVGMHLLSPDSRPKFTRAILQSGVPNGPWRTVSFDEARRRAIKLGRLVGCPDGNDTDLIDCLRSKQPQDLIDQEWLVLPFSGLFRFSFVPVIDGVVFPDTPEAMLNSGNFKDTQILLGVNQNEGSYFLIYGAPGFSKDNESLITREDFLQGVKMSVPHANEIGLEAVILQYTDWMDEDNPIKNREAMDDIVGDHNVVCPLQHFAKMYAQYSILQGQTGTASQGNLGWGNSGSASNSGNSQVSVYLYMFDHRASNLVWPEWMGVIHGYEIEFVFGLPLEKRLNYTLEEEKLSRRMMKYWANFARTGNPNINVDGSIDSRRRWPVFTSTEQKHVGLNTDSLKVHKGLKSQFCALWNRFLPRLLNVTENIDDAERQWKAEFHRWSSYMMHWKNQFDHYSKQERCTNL
# Experimental Protocol: Inhibition of electric eel AChE using acetylcholine iodide as substrate measured every 5 sec for 2 mins by Ellman's method
Listed here are molecules together with their documented pIC50.
Note on units: pIC50 is unitless, being -log10 of a concentration expressed in mol/L.

Field: example entries. Status: answers known.
Qu. pIC50 for c1ccc2c3c([nH]c2c1)CNCC3 ?
Ans. 4.01

Qu. Param item: CC1=NCCc2c1[nH]c1cc(O)ccc21
Ans. 4.95

Qu. Param item: COc1ccc2c3c([nH]c2c1)C(C)=NCC3
Ans. 5.31

Qu. Param item: COc1ccc2c(c1)[nH]c1c(C)nccc12
Ans. 4.64

Next:
Qu. pIC50 for COc1ccc2[nH]c3c(c2c1)CCNC3 ?
Ans. 3.64

Qu. Param item: Cc1nccc2c1[nH]c1cc(O)ccc12
Ans. 5.10

* * *

Listed here are compounds together with their documented inhibition.
# Target: Acetylcholinesterase (Electrophorus electricus)
# Experimental Protocol: Inhibition of electric eel AChE using acetylcholine iodide as substrate at 6.2 X 10^-4 M measured every 5 sec for 2 mins by Ellman's method
Return type: number; implicit unit %.

Field: example entries. Status: answers known.
Qu. Look up inhibition with Acetylcholinesterase (Electrophorus electricus) for this compound: O=C(O)c1cccc2[nH]ccc12
Ans. 36.8

Qu. Param item: O=C(O)c1ccc2[nH]ccc2c1
Ans. 29.1

Qu. Param item: O=C(O)c1cccc2cc[nH]c12
Ans. 23.4

// next entry
Qu. Look up inhibition with Acetylcholinesterase (Electrophorus electricus) for this compound: O=C(O)c1ccc2cc[nH]c2c1
Ans. 28.5

* * *

# Target: Acetylcholinesterase (Electrophorus electricus)
Measured Metric: IC50 (µM)
Return type: number; implicit unit µM.

Field: example entries. Status: answers known.
Qu. IC50 for Cc1nccc2c1[nH]c1ccccc12 ?
Ans. 20.9

Qu. Param item: COc1ccc2c(ccc[n+]2Cc2ccccc2)c1
Ans. 2.46

// next entry
Qu. IC50 for COc1ccc2c(ccc[n+]2C)c1 ?
Ans. 7.67
